Origin of the recorded values: patent US20260159512A1

# hBCAT1 (Homo sapiens): pIC50 values follow
# Sequence (P54687 whole entry): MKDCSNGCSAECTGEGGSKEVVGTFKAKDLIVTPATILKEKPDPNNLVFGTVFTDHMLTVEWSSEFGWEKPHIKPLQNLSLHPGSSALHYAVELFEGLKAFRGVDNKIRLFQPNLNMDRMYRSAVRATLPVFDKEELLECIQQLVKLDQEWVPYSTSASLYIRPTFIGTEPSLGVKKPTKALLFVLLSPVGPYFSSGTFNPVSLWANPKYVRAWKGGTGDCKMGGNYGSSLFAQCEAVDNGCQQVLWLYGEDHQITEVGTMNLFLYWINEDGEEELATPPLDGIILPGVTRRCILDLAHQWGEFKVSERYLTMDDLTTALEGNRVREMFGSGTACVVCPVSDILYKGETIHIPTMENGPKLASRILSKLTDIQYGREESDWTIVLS
pIC50: −log10 of the molar value.

INSERT INTO measurements (molecule, result) VALUES
  ('CC1(O)[C@@H](NC(=O)c2ncc(Cl)s2)CCC[C@H]1n1c(-c2ccccc2F)nc2cnc(-c3nc[nH]n3)cc21 (single isomer, unassigned)', '> 6.30'),
  ('O=C(NC1CCCC(n2c(-c3ccccn3)nc3cnc(-c4nnco4)cc32)C1)c1ccc(Br)s1 (stereo not shown)', '5.30 to 6.00'),
  ('CC(C)Cc1nc2cnc(-c3ncn(C)n3)cc2n1[C@@H]1CCC[C@H](NC(=O)c2ncc(Cl)s2)C1', '6.00 to 6.30'),
  ('O=C(N[C@H]1CCC[C@@H](n2c(-c3ccccc3O)nc3cnc(-c4nc[nH]n4)cc32)C1)c1ncc(Cl)s1', '> 6.30'),
  ('Cc1nc2cnc(-n3ccnn3)cc2n1[C@@H]1CCC[C@H](NC(=O)c2ccc(Br)s2)C1', '< 5.30'),
  ('O=C(NC1CCCC(n2c(-c3ncccc3F)nc3cnc(-c4nnco4)cc32)C1)c1ccc(Br)s1 (stereo not shown)', '6.00 to 6.30');

Pending molecule:
Measured pIC50 (hBCAT1 (Homo sapiens)), entry O=C(N[C@H]1CCC[C@@H](n2c(CC3CC3)nc3cnc(-c4nc[nH]n4)cc32)C1)c1ncc(Cl)s1 : > 6.30
